# System: EKVX NSCLC
# test-details: NCI tumour cell line growth inhibition, 48 h
I'd appreciate it if you could supply TGI values for the items below.
Unit µM implied. Number only.

compound `CN(C)c1cc(NN=C(c2ccc(O)cc2)c2ccc(O)cc2)c([N+](=O)[O-])cc1[N+](=O)[O-]` , TGI observed: 18.1

compound CCCCCC[C@@H]1CCC2C(CO)[C@@H](O)CC[C@@H]2C1 (some centres undefined) , TGI observed: 32.7

compound O=C1C=C[C@@H](COC2OC(CO)C(O)C(O)C2O)O1 (some centres undefined) , TGI observed: 39.1

compound `O=C(Oc1ccc(Cl)cc1)c1ccccc1Nc1ccnc(C(F)(F)F)c1` , TGI observed: 64

compound `c1ccc(Sc2ncnc3ccccc23)cc1` , TGI observed: 25.1
